biological target: D(2) dopamine receptor (Homo sapiens); experiment: Dopamine D2 receptor (DRD2) small molecule antagonists, cell-based qHTS assay (AID 1963595); conditions: HEK293-DRD2 cAMP HTRF antagonist mode; series mostly up to 92.4 µM
Records with an inconclusive call do not appear. Active and inactive are the calls of the source. The call rests on the fitted dose curve; in most records, active means well fitted inhibition curve with a large enough effect in the signal ratio in the repeat runs, with a control signal flat; inconclusive means weak or mixed curves, or effect the other way; inactive means flat fitted curve, though single readings scatter; the % refers to the signal ratio.
Pick one and only one: TRUE = active, FALSE = inactive

Cc1nnc(-c2ccccc2)c(=O)n1N | FALSE

# fetch the recorded call for C[C@H]1O[C@@H](O[C@H]2[C@@H](O)C[C@H](O[C@H]3[C@@H](O)C[C@H](O[C@H]4CC[C@@]5(C)[C@H](CC[C@@H]6[C@@H]5CC[C@]5(C)[C@@H](C7=CC(=O)OC7)CC[C@]65O)C4)O[C@@H]3C)O[C@@H]2C)C[C@H](O)[C@@H]1O here
FALSE

# fetch the recorded call for N#Cc1c[nH]cc1-c1cccc2c1OC(F)(F)O2 here
FALSE

# fetch the recorded call for Cc1ncc(C[n+]2csc(CCO)c2C)c(N)n1 here
FALSE

# fetch the recorded call for COP(=S)(OC)Oc1cc(Cl)c(Br)cc1Cl here
FALSE

# fetch the recorded call for CCC(Cl)CCl (stereo not drawn) here
FALSE

# fetch the recorded call for CCCSP(=O)(OCC)Oc1ccc(Br)cc1Cl (stereo not drawn) here
FALSE

# fetch the recorded call for CCOc1cc(C(C)(C)C)ccc1C1COC(c2c(F)cccc2F)=N1 (stereo not drawn) here
FALSE

# fetch the recorded call for CC(=O)O[C@H]1CC[C@@]2(C)C(=CC[C@@H]3[C@@H]2CC[C@]2(C)C(=O)CC[C@@H]32)C1 here
FALSE

# fetch the recorded call for COc1ccc(OC)c(CC(C)N)c1 (stereo not drawn) here
FALSE

# fetch the recorded call for CNC(=O)/C=C(\C)OP(=O)(OC)OC here
FALSE

# fetch the recorded call for CCC[CH2][Sn]([CH2]CCC)([CH2]CCC)[O]C(=O)c1ccccc1 here
TRUE

# fetch the recorded call for C[C@]12CC[C@@H]3c4ccc(OC(=O)N(CCCl)CCCl)cc4CC[C@H]3[C@@H]1CC[C@@H]2O here
FALSE

# fetch the recorded call for CCCCCCC[CH2][Sn]([Cl])([Cl])[CH2]CCCCCCC here
FALSE

# fetch the recorded call for [CH3][Hg][Cl] here
FALSE

# fetch the recorded call for ClC1=C(Cl)[C@]2(Cl)[C@H]3[C@H]([C@@H]4C=C[C@H]3C4)[C@@]1(Cl)C2(Cl)Cl here
FALSE

# fetch the recorded call for c1csc(-c2ccc(-c3cccs3)s2)c1 here
FALSE

----------
test: Nuclear factor erythroid 2-related factor 2/antioxidant responsive element (Nrf2/ARE) small molecule agonists: luciferase reporter gene qHTS assay in human keratinocytes (AID 1919969); settings: KeratinoSens HaCaT ARE-luciferase, luminescence, 24 h; series mostly up to 92.4 µM; further: nearly all actives have a fitted effect of over 35% in size
Results filed as inconclusive are left out. Active and inactive are the calls of the source. Calls come from the whole dose curve.
Pick one and only one: active, inactive

See these solved cases before continuing.
O=NN1CCN(N=O)CC1 | inactive
CCCN(CCCl)c1c([N+](=O)[O-])cc(C(F)(F)F)cc1[N+](=O)[O-] | inactive
C[C@@H](N)[C@@H](O)c1ccccc1 | inactive
O=C1CN=C(c2ccccc2)c2cc([N+](=O)[O-])ccc2N1 | inactive
O=C1C=CC(=O)c2ccccc21 | active

# fetch the recorded call for CN1C(=O)[C@@H](NC(=O)c2cc3ccccc3[nH]2)N=C(c2ccccc2)c2ccccc21 here
inactive

# fetch the recorded call for COc1cc(CC(C)N)c(OC)cc1Br (configuration not stated) here
inactive

# fetch the recorded call for COC12CC[C@@]3(C[C@@H]1C(C)(O)C(C)(C)C)[C@H]1Cc4ccc(O)c5c4[C@@]3(CCN1CC1CC1)[C@H]2O5 (some centres not stated) here
inactive

# fetch the recorded call for CCOP(=S)(OCC)SCS(=O)(=O)CC here
inactive

# fetch the recorded call for SCc1ccco1 here
active

# fetch the recorded call for C[C@]12C=CC(=O)C=C1CC[C@@H]1[C@@H]2CC[C@@]2(C)[C@H]1CC[C@]2(C)O here
inactive

# fetch the recorded call for ClCCCCl here
inactive

# fetch the recorded call for Nc1ccc2c(c1)Cc1ccccc1-2 here
inactive
